test system: barnyardgrass (Echinochloa crus-galli); experiment: Test A preemergence; format: in vivo; settings: 125 g ai/ha, Preemergence; visual injury after approximately 10 d; 0 to 100 scale where 0 is no effect and 100 is complete control
Property Label: Plant response rating, Barnyardgrass

INPUT: Specify reported Plant response rating, Barnyardgrass for the molecule shown: CN1CC(c2ccc(Br)cc2)C(C(=O)Nc2ccc(F)cc2F)C1=O (centres unmarked)
OUTPUT: 90

INPUT: Specify reported Plant response rating, Barnyardgrass for the molecule shown: O=C1NCC(c2cc(C(F)(F)F)ccc2F)C1C(=O)Nc1ccccc1F (centres unmarked)
OUTPUT: 90

INPUT: Specify reported Plant response rating, Barnyardgrass for the molecule shown: CC(C)c1ccc(C2CNC(=O)C2C(=O)Nc2ccccc2S(C)(=O)=O)cc1 (racemic)
OUTPUT: 0

INPUT: Specify reported Plant response rating, Barnyardgrass for the molecule shown: CCc1cc(C2CNC(=O)C2C(=O)Nc2ccccc2F)cs1 (racemic)
OUTPUT: 90

INPUT: Specify reported Plant response rating, Barnyardgrass for the molecule shown: O=C1NCC(c2cc(F)c(F)cc2F)C1C(=O)Nc1ccccc1F (racemic)
OUTPUT: 40

INPUT: Specify reported Plant response rating, Barnyardgrass for the molecule shown: C#CCN1CC(c2cccc(C(F)(F)F)c2)C(C(=O)Nc2ccccc2F)C1=O (centres unmarked)
OUTPUT: 0

INPUT: Specify reported Plant response rating, Barnyardgrass for the molecule shown: O=C1NCC(c2ccc(Oc3ccccc3)cc2)C1C(=O)Nc1ccccc1F (racemic)
OUTPUT: 0

INPUT: Specify reported Plant response rating, Barnyardgrass for the molecule shown: CN1CC(c2cccc(C(F)(F)F)c2)C(C(=O)Nc2ccc(F)cc2F)C1=O (centres unmarked)
OUTPUT: 90

====

I'd be grateful if you could share measured pest or weed control at 15.625 g/ha for these entries.
test system: giant foxtail (Setaria faberi); assay: Test G Pre-Emergence Protocol; format: in vivo; details: Setaria faberi, pre-emergence, 312 h, 15.625 g ai/ha, evaluated after 13 days, read-out: Foxtail, Giant damage rating (100=total damage to plant; 0=no damage to plant)

INPUT: Specify reported pest or weed control at 15.625 g/ha for the molecule shown: CN1C[C@@H](c2ccc(C(F)(F)F)cc2)[C@H](C(=O)Nc2cnccc2Cl)C1=O (racemic)
OUTPUT: 0%

INPUT: Specify reported pest or weed control at 15.625 g/ha for the molecule shown: CN1C[C@H](c2cccc(C(F)(F)F)c2)[C@@H](C(=O)Nc2cc(O)ccc2F)C1=O (racemic)
OUTPUT: 0%

INPUT: Specify reported pest or weed control at 15.625 g/ha for the molecule shown: CCOc1cc(C2CN(C)C(=O)C2C(=O)Nc2cccc(F)c2F)cc(C(F)(F)F)c1 (stereo not shown)
OUTPUT: 60%

INPUT: Specify reported pest or weed control at 15.625 g/ha for the molecule shown: CN1C[C@@H](c2ccc(Cl)nc2)[C@H](C(=O)Nc2cccc(F)c2F)C1=O (racemic)
OUTPUT: 0%

INPUT: Specify reported pest or weed control at 15.625 g/ha for the molecule shown: Cc1cc(NC(=O)[C@@H]2C(=O)N(C)C[C@H]2c2ccc(C(F)(F)F)cc2)n[nH]1 (racemic)
OUTPUT: 100%

INPUT: Specify reported pest or weed control at 15.625 g/ha for the molecule shown: CN1C[C@H](c2ccc(C(F)(F)F)cc2)[C@@H](C(=O)Nc2cnccc2[N+](=O)[O-])C1=O (racemic)
OUTPUT: 0%

INPUT: Specify reported pest or weed control at 15.625 g/ha for the molecule shown: CN1CC(c2cc(C#N)cc(OC(F)(F)F)c2)C(C(=O)Nc2cccc(F)c2F)C1=O (stereo not shown)
OUTPUT: 0%
